assay: Cytotoxicity against human HepG2 cells assessed as reduction in cell number after 24 hrs by bioluminescence assay; format: cell-based
Measurement Name: CC50 at 24 h (µg/mL)
Kindly answer with a numeric value in µg/mL, unit omitted.

Looking up CCCOc1ccc(-c2cc(OCCN(CC)CC)c3ccccc3n2)cc1 , I see its CC50 at 24 h listed as 21.6

Field CC50 at 24 h (entry CCCOc1ccc(-c2cc(OCCN3CCCCC3)c3cc(OCc4ccccc4)ccc3n2)cc1 ) reads 33.8

Record CCCOc1ccc(-c2cc(OCCN(CC)CC)c3cc(OCc4ccccc4)ccc3n2)cc1 . Reported CC50 at 24 h: 12.3

Recorded result, CCCOc1ccc(-c2cc(OCCN3CCCCC3)c3ccccc3n2)cc1 , CC50 at 24 h: 38.9

The values you see were collected from ChEMBL document CHEMBL4152305.
